Each recorded value in this set is attributed to patent US10550105B2.

Reported pIC50 is given for each of the following molecules.
ASSAYED_TARGET: PARP7 (Homo sapiens (Human), UniProt Q7Z3E1)
Sequence (Q7Z3E1 whole entry): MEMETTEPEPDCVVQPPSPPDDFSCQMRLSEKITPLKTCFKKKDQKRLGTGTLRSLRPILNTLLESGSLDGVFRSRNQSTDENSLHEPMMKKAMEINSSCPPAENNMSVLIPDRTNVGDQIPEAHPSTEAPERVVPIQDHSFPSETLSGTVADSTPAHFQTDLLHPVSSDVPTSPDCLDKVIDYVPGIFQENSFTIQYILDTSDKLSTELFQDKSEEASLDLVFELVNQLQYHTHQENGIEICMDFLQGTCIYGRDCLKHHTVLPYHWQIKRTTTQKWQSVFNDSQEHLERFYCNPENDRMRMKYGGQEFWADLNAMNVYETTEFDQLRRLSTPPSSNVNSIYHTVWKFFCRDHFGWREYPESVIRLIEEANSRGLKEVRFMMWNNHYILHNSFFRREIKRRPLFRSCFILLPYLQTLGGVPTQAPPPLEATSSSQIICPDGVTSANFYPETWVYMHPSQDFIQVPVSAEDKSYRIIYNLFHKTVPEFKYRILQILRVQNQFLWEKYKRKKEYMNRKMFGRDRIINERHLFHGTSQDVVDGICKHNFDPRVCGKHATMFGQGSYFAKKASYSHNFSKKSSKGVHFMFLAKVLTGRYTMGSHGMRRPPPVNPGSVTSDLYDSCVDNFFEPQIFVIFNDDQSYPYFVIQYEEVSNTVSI
PROCEDURE_SUMMARY: Enzymatic assay for inhibition of PARP7: TR-FRET displacement of biotinylated Probe A from the TIPARP active site
CONDITION_INFO: Table A-1
pIC50: −log10 of the molar value.

The cases that follow already have their pIC50 on record.
>>> recorded_result("C[C@@H](COCCC(=O)N1CCC(c2ncc(C(F)(F)F)cn2)CC1)Nc1cn[nH]c(=O)c1C(F)(F)F")
"> 7.00"
>>> recorded_result("COC[C@@H](COCCC(=O)N1CCN(c2cnc(Cl)cn2)CC1)Nc1cn[nH]c(=O)c1Br")
"> 7.00"
>>> recorded_result("CC1(C)C[C@@H](COCCC(=O)N2CCN(c3ccc(C#N)cn3)CC2)N(c2cn[nH]c(=O)c2C(F)(F)F)C1")
"> 7.00"
>>> recorded_result("O=C(CCNC[C@H]1c2ccccc2CN1c1cn[nH]c(=O)c1C(F)(F)F)N1CCN(c2ccc(C(F)(F)F)cn2)CC1")
"≤ 6.00"

Now consider the entry below.
Quote pIC50 with test system PARP7 (Homo sapiens (Human), UniProt Q7Z3E1) for N#Cc1ccc(N2CCN(C(=O)CCOC[C@@H]3CCCN3c3cn[nH]c(=O)c3Cl)CC2)nc1 > 7.00
